Source: paper PMC11025081

reportedProperty: melting point

Study these solved cases before continuing.
Request: // melting point lookup, key: CCN(CC)c1ccc(C=NNC(=O)c2ccncc2)c(OS(=O)(=O)c2ccc(C(F)(F)F)cc2)c1
Response: 141 to 142 °C

Request: Which melting point value belongs to COc1cc(C=O)ccc1OS(=O)(=O)c1ccc(C(F)(F)F)cc1 ?
Response: 112 to 113 °C

Request: Need melting point of CCN(CC)c1ccc(C=O)c(OS(=O)(=O)c2ccc(C(F)(F)F)cc2)c1 , thanks.
Response: 114 to 116 °C

// switching to the query molecule
Request: Consider the molecule COc1cc(C=NNC(=O)c2ccncc2)ccc1OS(=O)(=O)c1ccc(C(F)(F)F)cc1 and give its measured melting point.
Response: 192 to 193 °C

====

Tested on: human embryonic kidney cells (HEK-293T)
protocolText: MTT cytotoxic activity assay, HEK-293T healthy cells, 72 h
Assay type: cell-based
appliedConditions: HEK-293T healthy cell line
reportedProperty: IC50 (µM)
A number alone suffices; assume µM.

Request: Given the entry COc1ccc(C=NNC(=O)c2ccncc2)cc1OS(=O)(=O)c1ccc(C(F)(F)F)cc1 , report its measured IC50.
Response: 166

Request: Which IC50 value is on record for COc1ccc(C=NNC(=O)c2ccncc2)c(OS(=O)(=O)c2ccc(C(F)(F)F)cc2)c1 ?
Response: 26.6

Request: Which measured IC50 value corresponds to COc1ccc(C=O)c(OS(=O)(=O)c2ccc(C(F)(F)F)cc2)c1 ?
Response: 38.6

Request: # IC50 lookup, item O=Cc1c(OS(=O)(=O)c2ccc(C(F)(F)F)cc2)ccc2ccccc12
Response: 34.7

Others:
Request: # query: IC50 of entry COc1ccc(C=O)cc1OS(=O)(=O)c1ccc(C(F)(F)F)cc1
Response: 91

Request: Quick one: IC50 of O=Cc1ccccc1OS(=O)(=O)c1ccc(C(F)(F)F)cc1 ?
Response: 19.5

Request: Need IC50 of COc1cc(C=O)ccc1OS(=O)(=O)c1ccc(C(F)(F)F)cc1 , thanks.
Response: 110

Request: Would you mind telling me what IC50 value was observed for CCN(CC)c1ccc(C=O)c(OS(=O)(=O)c2ccc(C(F)(F)F)cc2)c1 ?
Response: 40.8

Request: Given the entry O=Cc1cccc(OS(=O)(=O)c2ccc(C(F)(F)F)cc2)c1 , report its measured IC50.
Response: 60

Request: For the molecule O=C(NN=Cc1cccc(OS(=O)(=O)c2ccc(C(F)(F)F)cc2)c1)c1ccncc1 , what IC50 is on record?
Response: 245

Request: Fill blank: measured IC50 of the molecule COc1cccc(C=O)c1OS(=O)(=O)c1ccc(C(F)(F)F)cc1 is ____.
Response: 35.3

Request: What value of IC50 has been recorded for this entry: O=C(NN=Cc1ccccc1OS(=O)(=O)c1ccc(C(F)(F)F)cc1)c1ccncc1
Response: 52.2

====

Tested on: human embryonic kidney cells (HEK-293T)
protocolText: MTT cytotoxic activity assay, HEK-293T healthy cells, 72 h
Assay type: cell-based
appliedConditions: HEK-293T healthy cell line
reportedProperty: IC50

Request: Fill blank: measured IC50 of the molecule COc1cccc(C=NNC(=O)c2ccncc2)c1OS(=O)(=O)c1ccc(C(F)(F)F)cc1 [Compound 13] is ____.
Response: > 300 µM

Request: Can you share its IC50? I mean this molecule: O=C(N/N=C/c1ccc(OS(=O)(=O)c2ccc(C(F)(F)F)cc2)cc1)c1ccncc1 [Compound 12]
Response: > 300 µM

Request: What value of IC50 has been reported for the following molecule? O=C(NN=Cc1c(OS(=O)(=O)c2ccc(C(F)(F)F)cc2)ccc2ccccc12)c1ccncc1 [Compound 18]
Response: 15.8 µM

Further cases:
Request: Given the molecule CCN(CC)c1ccc(C=NNC(=O)c2ccncc2)c(OS(=O)(=O)c2ccc(C(F)(F)F)cc2)c1 [Compound 17] , what is its reported IC50?
Response: 132 µM

Request: # get_value(readout='IC50', item= COc1cc(C=NNC(=O)c2ccncc2)ccc1OS(=O)(=O)c1ccc(C(F)(F)F)cc1 [Compound 16] )
Response: 183 µM

Request: # get_value(readout='IC50', item= O=Cc1ccc(OS(=O)(=O)c2ccc(C(F)(F)F)cc2)cc1 [Compound 3] )
Response: 89.3 µM
